# assay comment: differential killing of epithelial or mesenchymal cells, primary screen, imaging, PC-3E GFP, TEM4-18 mCherry, co-culture (AID 1345086);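 further: cells exposed to compound for 72 h before imaging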
# condition context: imaging cell counts, measured here: mesenchymal TEM4-18 mCherry cell survival, at 1 µM
measured property: normalised cell number
Answer with a number only.

Answered cases to consult:
CCOC(=O)C1=C(C)NC(C)=C(C(=O)OC)C1c1cccc([N+](=O)[O-])c1 (configuration not stated) = 1.31
COc1ccc(OC)c(C(O)CNC(=O)CN)c1 (configuration not stated) = 1.2
CC(C)C(=O)Nc1ccc([N+](=O)[O-])c(C(F)(F)F)c1 = 0.95
COCCOC(=O)C1=C(C)NC(C)=C(C(=O)OC(C)C)C1c1cccc([N+](=O)[O-])c1 (configuration not stated) = 1.17

Note to self: normalised cell number recorded for NC(=O)c1cnccn1 was 1.03

Note to self: normalised cell number recorded for S=c1nc[nH]c2nc[nH]c12 was 1.07

Note to self: normalised cell number recorded for O=c1[nH]cnc2[nH]ncc12 was 1.15
